- test_details: Cytotoxicity against human Chang cells assessed as reduction in cell viability by fluorescence based viable cell counting method
- test_conditions: Homo sapiens; read-out: IC50
Listed here are compounds together with their documented IC50.

compound | comparator | IC50 / µM
CC(C)(C)C1=CC(=CP(=O)(Oc2ccccc2)Oc2ccccc2)C=C(C(C)(C)C)C1=O | = | 17
CCOP(=O)(OCC)C(c1cc(C(C)(C)C)c(O)c(C(C)(C)C)c1)c1ccc(N)cc1N (configuration not stated) | = | 54.9
CC(C)OP(=O)(Cc1cc(C(C)(C)C)c(O)c(C(C)(C)C)c1)OC(C)C | = | 96
COP(=O)(OC)C(c1cc(C(C)(C)C)c(O)c(C(C)(C)C)c1)c1ccc(N)nc1N (configuration not stated) | > | 100
CC/C(=C(\c1ccccc1)c1ccc(OCCN(C)C)cc1)c1ccccc1 [TAMOXIFEN] | = | 42.1
CC(C)OP(=O)(OC(C)C)C(c1cc(C(C)(C)C)c(O)c(C(C)(C)C)c1)c1ccc(N)nc1N (configuration not stated) | > | 100
COP(=O)(Cc1cc(C(C)(C)C)c(O)c(C(C)(C)C)c1)OC | > | 100
